Target: T1, CS domain of cress (Arabidopsis thaliana) Sgt1a (Arabidopsis thaliana, UniProt Q9SUR9 150-241)
T1 construct: Sgt1a, Arabidopsis thaliana, CS domain; construct as described previously (Boter et al., 2007; Zhang et al., 2008); also called Sgt1-CS; Sgt-CS
T1 sequence: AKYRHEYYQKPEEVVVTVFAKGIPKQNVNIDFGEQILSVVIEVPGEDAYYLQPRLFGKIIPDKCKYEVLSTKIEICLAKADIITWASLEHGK
Experiment: ITC; Rar1-CHORDII with Sgt1-CS (Figure S2C); conditions not shown
Conditions: both partners purified
Endpoint Label: pKd
# pKd: negative log10 of molar concentration; output just the value

What does the data say about its pKd? Entry: CHORDII domain of cress (Arabidopsis thaliana) Rar1 (domain or fragment, Rar1, Arabidopsis thaliana, CHORDII domain; also called Rar1-CHORDII; isolated CHORDII) AVIDINQPQVCKNKGCGQTFKERDNHETACSHHPGPAVFHDRLRGWKCCDVHVKEFDEFMEIPPCTKGWHSSS
5.51
